Here, each record is paired with measured Cell binding (FOB) data.
# testedSystem: T1, human TREM2 expressed on cells (human, UniProt Q9NZC2 19-230)
# T1 construct: also called huT2 BW; cell expressed TREM2
# T1 sequence: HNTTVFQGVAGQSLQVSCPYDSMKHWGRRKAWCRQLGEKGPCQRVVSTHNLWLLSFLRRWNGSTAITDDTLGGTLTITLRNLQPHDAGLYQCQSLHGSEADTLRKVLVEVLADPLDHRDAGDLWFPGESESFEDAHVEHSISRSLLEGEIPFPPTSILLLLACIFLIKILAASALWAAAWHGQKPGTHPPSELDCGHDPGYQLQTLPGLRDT
# experimentalDetails: FACS, BW cells
# Experimental: To examine cell binding of anti-TREM2 antibodies, recombinant, human TREM2-expressing BW5147. G.1.4 cells (ATCC® TIB48™) were established by stably expressing either mouse TREM2 or human TREM2 together with Dap12 using viral infection. Cells were harvested by scraping, washed in PBS, counted and plated on 96-well U bottom plates at 1×10⁵ cells/well. […] Cells were again washed thrice with FACS buffer and analyzed on a BD FACS Canto. Binding was measured as mean fluorescence intensity in the […].
Answer in fold over background, number only, no unit symbol.

These recorded examples may help you get a feel for the data.
- binder: "AL2p-h23 (antibody, IgG1, V domains shown, IgG1; Fab in monovalent BLI) VH: QVQLVQSGAEVKKPGASLKISCKASGYAFSSSWMNWVRQAPGQGLEWIGRIYPGDGDTNYAQKFQGRATLTADTSTSTAYMELSSLRSEDTAVYYCARLLRNQPGESYAMDYWGQGALVTVSS VL: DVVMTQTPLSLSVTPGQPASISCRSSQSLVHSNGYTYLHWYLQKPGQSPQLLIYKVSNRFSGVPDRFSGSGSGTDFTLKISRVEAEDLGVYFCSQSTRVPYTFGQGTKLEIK"
  observedResult: 76
- binder: "AL2p-h33 (antibody, IgG1, V domains shown, IgG1; Fab in monovalent BLI) VH: QVQLVQSGAEVKKPGSSVKVSCKASGYAFSSSWMNWVRQAPGQGLEWIGRIYPGDGDTNYAQKFQGRATLTADTSTTTAYMELSSLRSEDTAVYFCARLLRNQPGESYAMDYWGQGTLVTVSS VL: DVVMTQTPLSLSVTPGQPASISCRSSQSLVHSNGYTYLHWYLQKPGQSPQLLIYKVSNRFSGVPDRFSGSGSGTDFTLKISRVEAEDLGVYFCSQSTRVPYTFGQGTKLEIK"
  observedResult: 74

Query binder follows.
IN: Field request: Cell binding (FOB) | item: AL2p-h22 (antibody, IgG1, V domains shown, IgG1; Fab in monovalent BLI) VH: QVQLVQSGAEVKKPGASVKVSCKASGYAFSSSWMNWVRQAPGQGLEWIGRIYPGDGDTNYAQKFQGRVTMTADTSTSTVYMELSSLRSEDTAVYYCARLLRNQPGESYAMDYWGQGTLVTVSS VL: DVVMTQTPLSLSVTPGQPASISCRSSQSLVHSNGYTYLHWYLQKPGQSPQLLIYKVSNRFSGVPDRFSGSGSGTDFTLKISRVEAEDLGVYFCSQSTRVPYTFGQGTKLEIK
OUT: 61
